fAUC reference
System: Mus musculus
Assay: fAUC in mouse at 3 mg/kg, iv or 10 mg/kg, po
Assay type: ADME, organism-based
Details: in vivo
# number only, unit ng·h/mL dropped from output

Example entries begin here.
| compound | fAUC / ng·h/mL |
| --- | --- |
| C[C@@H]1C(=O)NN=C2COc3cc(-c4ccc5c(c4)OCCO5)c([C@@H]4CCN(C)C[C@@H]4C)cc3N21 | 856 |
| COc1ccc(-c2cc3c(cc2[C@@H]2CCN(C)C[C@@H]2C)N2C(=NNC(=O)[C@H]2C)CO3)c(F)c1 | 1400 |
| COc1cccc(-c2cc3c(cc2[C@@H]2CCN(C)C[C@@H]2C)N2C(=NNC(=O)[C@H]2C)CO3)c1 | 73.9 |
| C[C@@H]1C(=O)NN=C2COc3cc(-c4ccccc4F)c(C4CCN(C)CC4(C)C)cc3N21 (stereo not given in full) | 113 |

# context switch: different compound, same fAUC
QUERY: If you can, please state the reported fAUC value of "C[C@@H]1C(=O)NN=C2COc3cc(-c4ccccc4F)c([C@@H](C)C4(C)CN(C)C4)cc3N21" .
RESULT: 132

----------
Measured fAUC values are reported for all entries that follow.
Test system: Mus musculus
Experiment: fAUC in mouse at 3 mg/kg, iv or 10 mg/kg, po
Format: ADME, organism-based
Conditions: in vivo
Respond numerically; units are ng·h/mL and should not be typed.

| compound structure string | quantity name | observed |
| --- | --- | --- |
| Cc1ccc(-c2cc3c(cc2[C@@H]2CCN(C)C[C@@H]2C)N2C(=NNC(=O)[C@H]2C)CO3)c(F)c1 | fAUC | 1020 |
| Cc1ccccc1-c1cc2c(cc1[C@@H]1CCN(C)C[C@@H]1C)N1C(=NNC(=O)[C@H]1C)CO2 | fAUC | 924 |
| COc1ccc(-c2cc3c(cc2[C@@H]2CCN(C)C[C@@H]2C)N2C(=NNC(=O)[C@H]2C)CO3)cc1 | fAUC | 1290 |
| Cc1ccc(-c2cc3c(cc2[C@@H]2CCN(C)C[C@@H]2C)N2C(=NNC(=O)[C@H]2C)CO3)cc1 | fAUC | 324 |
| CCN1CC[C@@H](c2cc3c(cc2-c2ccccc2F)OCC2=NNC(=O)[C@@H](C)N23)[C@@H](C)C1 | fAUC | 159 |
| C[C@@H]1C(=O)NN=C2COc3cc(-c4ccccc4F)c(C4CCN(C)CC4)cc3N21 | fAUC | 401 |

QUERY: API: value(readout= fAUC, system= Mus musculus, query= "C[C@@H]1C(=O)NN=C2COc3cc(-c4ccccc4F)c([C@@H]4CCNC[C@@H]4C)cc3N21" )
RESULT: 258

----------
The entries below are paired with their reported fCmax.
Test system: Mus musculus
Experiment: fCmax in mouse at 3 mg/kg, iv or 10 mg/kg, po
Format: ADME, organism-based
Details: in vivo
Respond with the bare value in ng/mL.

# example entries with known answers
| compound | fCmax (ng/mL) |
| --- | --- |
| Cc1ccc(-c2cc3c(cc2[C@@H]2CCN(C)C[C@@H]2C)N2C(=NNC(=O)[C@H]2C)CO3)c(F)c1 | 78 |
| C[C@@H]1C(=O)NN=C2COc3cc(-c4ccccc4F)c([C@@H](C)C4(C)CN(C)C4)cc3N21 | 36.7 |
| C[C@@H]1CN(C)CC[C@@H]1c1cc2c(cc1-c1ccccc1F)OCC1=NNC(=O)[C@@H](C)N12 | 125 |
| COc1ccc(-c2cc3c(cc2[C@@H]2CCN(C)C[C@@H]2C)N2C(=NNC(=O)[C@H]2C)CO3)c(F)c1 | 113 |
| C[C@@H]1C(=O)NN=C2COc3cc(-c4ccccc4F)c([C@H]4CCN(C)C4)cc3N21 | 39.9 |

Query compound follows.
QUERY: Item "C[C@@H]1C(=O)NN=C2COc3cc(-c4ccccc4F)c(N(C)C4(C)CN(C)C4)cc3N21" has what recorded fCmax?
RESULT: 27.3
